Listed below: viability at 72 h, 50 µM values for each entry.
Test: Cytotoxicity against human HepG2 cells assessed as cell survival rate at 50 uM measured after 3 days by Celltiter-glo assay relative to control
Assay type: cell-based
Conditions: HepG2 cells, read-out: Activity
Provide the reading as a plain figure in %.

- COMPOUND: "CCCC[C@@H]1N(Cc2ccc(-c3ccccc3-c3nnn[nH]3)cc2)C(=O)[C@@H]2CCCN12"
  TEST RESULT: 89

Please look up its viability at 72 h, 50 µM: CCCCC1=NC(C)(C)C(=O)N1Cc1ccc(-c2ccccc2-c2nnn[nH]2)cc1
56

For the compound CCCCC1=NC(C)(c2ccccc2)C(=O)N1Cc1ccc(-c2ccccc2-c2nnn[nH]2)cc1 (stereo unspecified) , what viability at 72 h, 50 µM is on record?
56
